Biological target: Serine/threonine-protein kinase STK11 (Homo sapiens)
Assay: Competitive binding affinity to LKB1 (unknown origin) at 10 uM in presence of ATP relative to control
A collection of compounds and their measured inhibition

compound smiles	inhibition
O[C@H]1CC[C@H](Nc2nccc(-n3ncc4ccccc43)n2)CC1	< 50%
O[C@H]1CC[C@H](Nc2nccc(-n3ccc4ccccc43)n2)CC1	< 50%
O[C@H]1CC[C@H](Nc2nccc(-c3n[nH]c4ccccc34)n2)CC1	75%
O[C@H]1CC[C@H](Nc2nccc(-n3nnc4ccccc43)n2)CC1	< 50%

###

Target: Serine/threonine-protein kinase MARK1 (Homo sapiens) (UniProt Q9P0L2)
Sequence (Q9P0L2 whole entry, looked up): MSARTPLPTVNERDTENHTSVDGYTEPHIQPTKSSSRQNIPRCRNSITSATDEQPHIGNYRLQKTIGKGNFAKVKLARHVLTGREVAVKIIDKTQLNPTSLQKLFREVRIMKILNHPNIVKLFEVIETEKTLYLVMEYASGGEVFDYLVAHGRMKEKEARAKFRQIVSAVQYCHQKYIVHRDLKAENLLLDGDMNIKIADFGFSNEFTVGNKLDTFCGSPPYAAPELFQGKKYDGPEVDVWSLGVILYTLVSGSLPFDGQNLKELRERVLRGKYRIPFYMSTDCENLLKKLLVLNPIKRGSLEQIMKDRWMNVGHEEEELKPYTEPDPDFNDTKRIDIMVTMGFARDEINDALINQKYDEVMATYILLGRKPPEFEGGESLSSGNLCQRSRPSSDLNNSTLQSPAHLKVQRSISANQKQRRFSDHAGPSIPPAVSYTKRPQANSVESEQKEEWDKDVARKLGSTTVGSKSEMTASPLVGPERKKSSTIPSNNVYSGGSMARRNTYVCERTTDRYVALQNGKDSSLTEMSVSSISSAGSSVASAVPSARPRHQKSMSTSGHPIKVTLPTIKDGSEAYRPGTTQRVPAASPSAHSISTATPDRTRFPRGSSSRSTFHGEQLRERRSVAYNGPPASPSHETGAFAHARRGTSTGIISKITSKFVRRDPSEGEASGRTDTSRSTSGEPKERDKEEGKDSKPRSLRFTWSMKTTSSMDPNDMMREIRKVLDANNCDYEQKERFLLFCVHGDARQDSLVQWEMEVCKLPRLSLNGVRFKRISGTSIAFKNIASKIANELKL
Test: Competitive binding affinity to MARK1 (unknown origin) at 10 uM in presence of ATP relative to control
attribute measured: inhibition

compound smiles	test value
O[C@H]1CC[C@H](Nc2nccc(-n3ccc4ccccc43)n2)CC1	< 50%
O[C@H]1CC[C@H](Nc2nccc(-n3nnc4ccccc43)n2)CC1	< 50%
O[C@H]1CC[C@H](Nc2nccc(-c3n[nH]c4ccccc34)n2)CC1	66%
O[C@H]1CC[C@H](Nc2nccc(-n3ncc4ccccc43)n2)CC1	< 50%

###

Target: Glycogen synthase kinase-3 alpha (Homo sapiens)
Sequence (P49840 2-483 limits assumed): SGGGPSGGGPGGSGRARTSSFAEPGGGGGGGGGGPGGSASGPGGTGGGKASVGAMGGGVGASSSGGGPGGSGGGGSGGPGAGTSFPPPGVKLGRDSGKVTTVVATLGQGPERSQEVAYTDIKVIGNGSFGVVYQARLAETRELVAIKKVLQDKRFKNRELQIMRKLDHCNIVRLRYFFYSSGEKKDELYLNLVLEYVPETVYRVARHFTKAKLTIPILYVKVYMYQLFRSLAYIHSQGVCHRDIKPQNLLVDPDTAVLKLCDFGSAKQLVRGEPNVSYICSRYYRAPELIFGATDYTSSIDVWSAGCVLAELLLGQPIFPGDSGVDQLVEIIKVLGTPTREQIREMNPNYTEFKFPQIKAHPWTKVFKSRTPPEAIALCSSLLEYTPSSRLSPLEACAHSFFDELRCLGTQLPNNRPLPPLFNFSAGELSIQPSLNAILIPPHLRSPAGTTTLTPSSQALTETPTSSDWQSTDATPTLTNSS
Assay: Competitive binding affinity to GSK3alpha (unknown origin) at 10 uM in presence of ATP relative to control

compound smiles	inhibition
O[C@H]1CC[C@H](Nc2nccc(-n3ccc4ccccc43)n2)CC1	91%
O[C@H]1CC[C@H](Nc2nccc(-c3n[nH]c4ccccc34)n2)CC1	97%
CS(=O)(=O)CCCOc1cccc2c1ccn2-c1ccnc(N[C@H]2CC[C@H](C(=O)N3CCC(O)CC3)CC2)n1	> 85%
O[C@H]1CC[C@H](Nc2nccc(-n3ncc4ccccc43)n2)CC1	99%
O[C@H]1CC[C@H](Nc2nccc(-n3nnc4ccccc43)n2)CC1	100%

###

A collection of compounds and their measured pIC50
Target: Cyclin-dependent kinase 2/cyclin E1 (Homo sapiens, UniProt P24941)
Test: Inhibition of human recombinant CDK2/GST-tagged cyclin E expressed in baculovirus infected insect cells assessed as inhibition of 6XHis-tagged retinoblastoma protein (386 to 928) phosphorylation after 30 mins by scintillation counting analysis in presence of [gamma-33P]-ATP
pIC50: −log10 of the molar value.
attribute measured: pIC50

compound smiles	attribute measured	limit operator	test value
O=C([C@H]1CC[C@H](Nc2nccc(-n3nnc4ccccc43)n2)CC1)N1CCCC1	pIC50	<	5.21
CN(C)S(=O)(=O)N[C@H]1CC[C@H](Nc2nccc(-n3nnc4ccccc43)n2)CC1	pIC50	=	5.77
O[C@H]1CC[C@H](Nc2nccc(-n3nnc4ccccc43)n2)CC1	pIC50	=	6.37
O=C([C@H]1CC[C@H](Nc2nccc(-n3nnc4ccccc43)n2)CC1)N1CCOCC1	pIC50	=	5.70
CS(=O)(=O)N[C@H]1CC[C@H](Nc2nccc(-n3nnc4ccccc43)n2)CC1	pIC50	=	6.52
CC(=O)N[C@H]1CC[C@H](Nc2nccc(-n3nnc4ccccc43)n2)CC1	pIC50	=	6.24
c1ccc2c(c1)nnn2-c1ccnc(NC2CCCCC2)n1	pIC50	=	5.57
N[C@H]1CC[C@H](Nc2nccc(-n3nnc4ccccc43)n2)CC1	pIC50	=	6.44

###

Target: Angiopoietin-1 receptor (Homo sapiens)
Assay: Competitive binding affinity to TIE2 (unknown origin) at 10 uM in presence of ATP relative to control

compound smiles	system name	inhibition
O[C@H]1CC[C@H](Nc2nccc(-n3nnc4ccccc43)n2)CC1	Angiopoietin-1 receptor (Homo sapiens)	< 50%
O[C@H]1CC[C@H](Nc2nccc(-n3ncc4ccccc43)n2)CC1	Angiopoietin-1 receptor (Homo sapiens)	< 50%
O[C@H]1CC[C@H](Nc2nccc(-c3n[nH]c4ccccc34)n2)CC1	Angiopoietin-1 receptor (Homo sapiens)	< 50%
O[C@H]1CC[C@H](Nc2nccc(-n3ccc4ccccc43)n2)CC1	Angiopoietin-1 receptor (Homo sapiens)	< 50%
O=C([C@H]1CC[C@H](Nc2nccc(-n3nnc4ccccc43)n2)CC1)N1CCOCC1	Angiopoietin-1 receptor (Homo sapiens)	< 50%
N[C@H]1CC[C@H](Nc2nccc(-n3nnc4ccccc43)n2)CC1	Angiopoietin-1 receptor (Homo sapiens)	< 50%

Attribution: ChEMBL document CHEMBL2424622
